Recorded values, source ChEMBL document CHEMBL1125963.

organism: Homo sapiens; experiment: Concentration required to inhibit collagen-induced platelet aggregation by 50 % (>10 uM); IA means inactive; format: functional
measure: IC50

CCCCC[C@H](O)/C=C/[C@@H]1[C@H]2C/C(=C/CCCC(=O)O)C[C@H]2C[C@H]1O :: Not Active
O=C(O)COc1cccc2c1C[C@H]1C[C@@H](O)[C@H](CC[C@@H](O)C3CCCCC3)[C@H]1C2 :: Not Active
CCC#CC[C@H](C)[C@H](O)C#C[C@@H]1[C@H]2C/C(=C/COCC(=O)O)C[C@H]2C[C@H]1O [CICAPROST] :: Not Active
CC(C)(C/C=C1\C[C@H]2C[C@@H](O)[C@H](C#C[C@@H](O)C3CCCCC3)[C@H]2C1)CCO :: Not Active
